target: WT-TTR (Homo sapiens, UniProt P02766); construct: made in house; assay: Stagnant acid-mediated TTR aggregation (fibril formation) assay, turbidity at 340 nm; assay type: biochemical; conditions: pH 4.4, compound 100 μM, WT-TTR 7.2 μM, pH 4.4, 37° C.; read-out: % Inhibition
Quantity measured: inhibition at 100 µM (%)

Solved cases (4 shown):
{"Compound": "O=C1/C(=C\\c2cccc(O)c2)SC(=S)N1c1ccc(F)cc1", "Unit of measure": "%", "inhibition at 100 µM": 0}
{"Compound": "CCN1C(=O)/C(=C/c2ccc(N(CC)CC)cc2O)SC1=S", "Unit of measure": "%", "inhibition at 100 µM": 0}
{"Compound": "CCOC(=O)c1c(N)sc(C(=O)Nc2cc(C)cc(C)c2)c1C", "Unit of measure": "%", "inhibition at 100 µM": 12.2}
{"Compound": "O=C1CCCC2=C1C(c1cccc(O)c1)NC(=S)N2 (stereo not drawn)", "Unit of measure": "%", "inhibition at 100 µM": 0}

a: O=C(Nc1c2c(nn1-c1cccc(Cl)c1)C[S+]([O-])C2)c1ccccc1F (stereo not drawn)
b: O=C1NC(=S)S/C1=C\c1ccc(-c2cc(Cl)ccc2Cl)o1
c: O=C(Nc1nnc[nH]1)c1c(Cl)ccc(Cl)c1Cl
d: Cc1nc2c(ccc3ccccc32)c(O)c1CN1CCCC1
e: Oc1ccc(Nc2nc(-c3ccc(Cl)cc3)nc3ccccc23)cc1
Arrange the 5 compounds from largest to smallest inhibition at 100 µM. // respond by listing labels in the order requested c, d, a, e, b
